# Target or system: human PR (Homo sapiens)
# Construct: expressed in transfected cells; host or cells: CV-1 cells, electroporated with pLEM-hPR-B and pGL3-2xPRE-luciferase
# Sequence (P06401 whole entry): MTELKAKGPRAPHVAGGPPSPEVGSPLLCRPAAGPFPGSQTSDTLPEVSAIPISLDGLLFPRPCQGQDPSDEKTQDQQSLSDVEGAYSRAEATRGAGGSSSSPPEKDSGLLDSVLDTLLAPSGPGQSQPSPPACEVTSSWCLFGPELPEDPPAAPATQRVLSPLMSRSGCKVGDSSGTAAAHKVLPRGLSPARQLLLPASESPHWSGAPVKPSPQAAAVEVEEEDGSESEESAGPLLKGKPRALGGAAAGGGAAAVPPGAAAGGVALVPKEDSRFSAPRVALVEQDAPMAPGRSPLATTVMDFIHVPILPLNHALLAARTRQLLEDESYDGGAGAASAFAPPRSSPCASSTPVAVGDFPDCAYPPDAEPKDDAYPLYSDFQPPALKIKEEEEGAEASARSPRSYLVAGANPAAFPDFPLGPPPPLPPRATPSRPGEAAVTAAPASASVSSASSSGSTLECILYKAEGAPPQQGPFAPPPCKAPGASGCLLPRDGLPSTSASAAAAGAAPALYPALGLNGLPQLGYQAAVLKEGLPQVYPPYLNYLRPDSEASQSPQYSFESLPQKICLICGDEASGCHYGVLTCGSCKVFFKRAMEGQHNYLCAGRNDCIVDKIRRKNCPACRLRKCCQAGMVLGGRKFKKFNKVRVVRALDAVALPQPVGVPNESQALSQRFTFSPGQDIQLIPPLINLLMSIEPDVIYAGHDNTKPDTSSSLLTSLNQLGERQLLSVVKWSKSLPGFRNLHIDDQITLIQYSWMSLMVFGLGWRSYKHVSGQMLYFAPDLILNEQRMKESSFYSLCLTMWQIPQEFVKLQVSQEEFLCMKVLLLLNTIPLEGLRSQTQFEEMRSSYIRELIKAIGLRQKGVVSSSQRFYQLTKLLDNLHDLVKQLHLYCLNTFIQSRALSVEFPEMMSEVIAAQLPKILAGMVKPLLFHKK
# Test name: PRE-luciferase assay in CV-1 cells (hPR CV-1)
# Format: cell-based
# Protocol: 3. PRE-luciferase Assay in CV-1 Cells The object of this assay is to determine a compound's progestational or antiprogestational potency based on its effect on PRE-luciferase reporter activity in CV-1 cells co-transfected with human PR and PRE-luciferase plasmids. […] Stock CV-1 cells are maintained in growth medium. […] Luciferase activity is measured using luciferase reagents from Promega. Each treatment consists of at least 4 replicates. […] EC50 or IC50 values are calculated from the retransformed values.
pIC50: −log10 of the molar value.
Reported pIC50 is given for each of the following compounds.
Assay metric: pIC50

>>> meas_value("O=C1CSc2cc(-c3cccc([N+](=O)[O-])c3)ccc2N1")
6.66
>>> meas_value("CC(C)n1c(=O)[nH]c2ccc(-c3cccc([N+](=O)[O-])c3)cc21")
6.83
>>> meas_value("O=C1CNc2cc(-c3cccc(Cl)c3)ccc2N1")
6.28
>>> meas_value("O=c1[nH]c2ccc(-c3cccc([N+](=O)[O-])c3)cc2n1Cc1ccccc1")
6.64
>>> meas_value("Cn1c(=O)[nH]c2cc(-c3cccc([N+](=O)[O-])c3)ccc21")
6.12
>>> meas_value("CC(C)n1c(=O)[nH]c2ccc(-c3cccc(Cl)c3)cc21")
6.81
>>> meas_value("CCC1Sc2cc(-c3cccc([N+](=O)[O-])c3)ccc2NC1=O (stereo not shown)")
6.53
